- assay_system: P-gp (Homo sapiens, UniProt P08183)
- Construct: The MDR, P-gp overexpressing DU145-TXR cells were maintained under positive selection pressure; endogenous in cells; host or cells: DU145-TXR (paclitaxel-resistant sub-line of DU145 human prostate cancer cells)
- Sequence (P08183 whole entry): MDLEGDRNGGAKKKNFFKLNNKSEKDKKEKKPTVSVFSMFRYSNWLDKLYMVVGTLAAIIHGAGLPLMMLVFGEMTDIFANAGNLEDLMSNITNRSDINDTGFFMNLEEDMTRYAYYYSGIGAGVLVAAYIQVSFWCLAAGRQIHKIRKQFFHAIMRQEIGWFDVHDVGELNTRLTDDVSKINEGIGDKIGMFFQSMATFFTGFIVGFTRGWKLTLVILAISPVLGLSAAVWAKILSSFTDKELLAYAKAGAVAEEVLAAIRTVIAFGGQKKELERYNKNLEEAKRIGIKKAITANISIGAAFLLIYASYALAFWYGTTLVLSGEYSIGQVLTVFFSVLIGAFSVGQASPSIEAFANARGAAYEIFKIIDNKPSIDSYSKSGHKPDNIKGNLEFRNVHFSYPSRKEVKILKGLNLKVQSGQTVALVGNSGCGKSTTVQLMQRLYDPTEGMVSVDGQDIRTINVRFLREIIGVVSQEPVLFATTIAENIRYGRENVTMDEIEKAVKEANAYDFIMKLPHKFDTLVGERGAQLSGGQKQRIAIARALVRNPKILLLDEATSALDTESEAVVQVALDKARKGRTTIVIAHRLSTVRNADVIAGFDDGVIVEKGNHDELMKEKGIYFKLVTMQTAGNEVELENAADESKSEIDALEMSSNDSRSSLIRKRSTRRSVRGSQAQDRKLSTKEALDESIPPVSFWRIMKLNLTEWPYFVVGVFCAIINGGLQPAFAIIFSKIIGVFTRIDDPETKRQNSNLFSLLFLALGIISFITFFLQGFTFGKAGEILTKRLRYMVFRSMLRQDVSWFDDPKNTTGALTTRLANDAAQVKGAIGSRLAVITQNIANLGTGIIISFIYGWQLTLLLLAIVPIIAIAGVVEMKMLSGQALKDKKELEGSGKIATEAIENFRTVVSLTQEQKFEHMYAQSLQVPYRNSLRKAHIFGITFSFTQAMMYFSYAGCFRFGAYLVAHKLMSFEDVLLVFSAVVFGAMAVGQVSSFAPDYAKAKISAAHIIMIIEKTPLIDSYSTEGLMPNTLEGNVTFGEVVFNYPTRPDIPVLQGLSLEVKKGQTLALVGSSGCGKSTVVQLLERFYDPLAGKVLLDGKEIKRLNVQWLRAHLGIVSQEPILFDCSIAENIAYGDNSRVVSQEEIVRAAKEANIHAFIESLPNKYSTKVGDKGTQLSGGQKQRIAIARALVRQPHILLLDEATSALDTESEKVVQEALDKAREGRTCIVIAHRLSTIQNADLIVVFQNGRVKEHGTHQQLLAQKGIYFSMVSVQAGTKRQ
- method_summary: LC-MS/MS intracellular accumulation assay with or without tariquidar (P-gp transport substrate test) in DU145-TXR cells
- Format: in vitro ADME
- test_settings: significant difference = likely P-gp transport substrate
readout_kind: Significance of accumulation with tariquidar, Trial 2

smiles_entry	assay_system	measured
O=C(NCc1cccc(F)c1)c1nnn2c1Sc1c(C(=O)NCc3cccc(F)c3)nnn1CC2	P-gp (Homo sapiens, UniProt P08183)	*** (P < 0.001 = ***)
O=C(c1nc(-c2ccccn2)no1)N1CCN(c2nsc3ccccc23)CC1	P-gp (Homo sapiens, UniProt P08183)	*** (P < 0.001 = ***)

====

- Test system: HFL1 (human lung fibroblast) cell line
- method_summary: MTT viability assay, inherent toxicity in non-cancerous HFL1 cells
- Type: cell-based
- Set-up: tested at 15 µM
- test_settings: HFL1 cells, compound alone, mean of 8 samples
Each entry below carries its reported Mean % Survival.
readout_kind: Mean % Survival (%)

> print(dat)
                               smiles.entry  measured
1  O=S(=O)(CCSc1nnc(-c2ccccc2)c2ccccc12)c1ccccc1      92.7
2  O=C(c1nc(-c2ccccn2)no1)N1CCN(c2nsc3ccccc23)CC1      84.6
3  O=C(c1nc(-c2ccc3cc[nH]c3c2)no1)N1CCN(c2nsc3ccccc23)CC1      81.4

====

- Tested on: P-gp
- method_summary: SWISS-ADME prediction of P-gp transport substrate
- test_settings: prediction compared to the LC-MS/MS intracellular accumulation data
readout_kind: Correct P-gp Substrate Prediction?

> print(dat)
                               smiles.entry  assay.system  measured
1  Cc1ccc(-c2noc(-c3cn(Cc4ccc(NS(=O)(=O)c5ccccc5F)cc4)cn3)n2)cc1          P-gp        No
2  O=C(c1cc2ccccc2[nH]1)N1CCN(S(=O)(=O)c2cccc3nonc23)CC1          P-gp        No
3  O=C(NCc1cccc(F)c1)c1nnn2c1Sc1c(C(=O)NCc3cccc(F)c3)nnn1CC2          P-gp       Yes

====

- assay_system: P-gp (Homo sapiens, UniProt P08183)
- Construct: The MDR, P-gp overexpressing DU145-TXR cells were maintained under positive selection pressure; endogenous in cells; host or cells: DU145-TXR (paclitaxel-resistant sub-line of DU145 human prostate cancer cells)
- method_summary: LC-MS/MS intracellular accumulation assay with or without tariquidar (P-gp transport substrate test) in DU145-TXR cells
- Type: in vitro ADME
- test_settings: Student's T test of the mean
Each entry below carries its reported P (- TQR vs + TQR), Trial 2.
readout_kind: P (- TQR vs + TQR), Trial 2

compound	readout_kind	measured
Nc1nonc1-n1nnc(C(=O)N/N=C/c2c3ccccc3cc3ccccc23)c1COc1ccc(F)cc1	P (- TQR vs + TQR), Trial 2	> 1
O=S(=O)(Cc1nc2ccccc2n1CC(O)c1ccc(Cl)cc1)c1ccccc1 (stereo not drawn)	P (- TQR vs + TQR), Trial 2	> 1
COc1cccc2c1C(=O)c1c(O)c3c(c(O)c1C2=O)C[C@@](O)(C(C)=O)C[C@@H]3O[C@H]1C[C@H](N)[C@H](O)[C@H](C)O1 [Daunorubicin, reference compound]	P (- TQR vs + TQR), Trial 2	2x10^-5
